molecular target: Cholecystokinin receptor (Rattus norvegicus) (UniProt P30551+P30553); assay: Evaluated for effective dose required for suppression of food intake in rat (0-60 min); type: functional
*1 amine or outer side, *2 acyl side, *3 side chain or, on linkers, in order; H or OH if unused. Where a SMILES comes first, the peptide text is derived from it. [ ]: non-standard residue; d: D form. The star is where a group is joined. Hydrocinnamoyl(4-OSO3H) = O=C(CCc1ccc(OS(=O)(=O)O)cc1)*; X2 = O=C([C@@H]1CC(OS(=O)(=O)O)CN1[*:1])[*:2]; X1 = CCCC1CCN([*:1])[C@@H]1C(=O)[*:2]; NMeF = CN[C@@H](Cc1ccccc1)C(=O)O; Nle = CCCC[C@H](N)C(=O)O
Answer each item with its documented ED50.

Check out these entries, answers already filled in.
compound="CCCC[C@H](NC(=O)CCc1ccc(OS(=O)(=O)O)cc1)C(=O)NCC(=O)N[C@@H](Cc1c[nH]c2ccccc12)C(=O)N1CCC(CCC)[C@H]1C(=O)N[C@@H](CC(=O)O)C(=O)N(C)[C@@H](Cc1ccccc1)C(N)=O (some centres undefined) ({Hydrocinnamoyl(4-OSO3H)}-[Nle]GW[X1]D[NMeF]-NH2)" tested_target="Cholecystokinin receptor (Rattus norvegicus) (UniProt P30551+P30553)" reported_metric=ED50 result="0.00877 µmol/kg"
compound=CCCC[C@H](NC(=O)CCc1ccc(OS(=O)(=O)O)cc1)C(=O)NCC(=O)N[C@@H](Cc1c[nH]c2ccccc12)C(=O)N[C@@H](CCCC)C(=O)N[C@@H](CC(=O)O)C(=O)N[C@@H](Cc1ccccc1)C(N)=O tested_target="Cholecystokinin receptor (Rattus norvegicus) (UniProt P30551+P30553)" reported_metric=ED50 result="0.00398 µmol/kg"
compound="CCCC[C@H](NC(=O)CCc1ccc(OS(=O)(=O)O)cc1)C(=O)NCC(=O)N[C@@H](Cc1c[nH]c2ccccc12)C(=O)N[C@@H](CCCC)C(=O)N[C@@H](CC(=O)O)C(=O)N(C)[C@@H](Cc1ccccc1)C(N)=O ({Hydrocinnamoyl(4-OSO3H)}-[Nle]GW[Nle]D[NMeF]-NH2)" tested_target="Cholecystokinin receptor (Rattus norvegicus) (UniProt P30551+P30553)" reported_metric=ED50 result="0.00245 µmol/kg"

Turning to the following compound.
// query Annotate the compound CCCC[C@H](NC(=O)CCc1ccc(OS(=O)(=O)O)cc1)C(=O)NCC(=O)N[C@@H](Cc1c[nH]c2ccccc12)C(=O)N[C@@H](CCCC)C(=O)N1CC(OS(=O)(=O)O)C[C@H]1C(=O)N[C@@H](Cc1ccccc1)C(N)=O (some centres undefined) ({Hydrocinnamoyl(4-OSO3H)}-[Nle]GW[Nle][X2]F-NH2) with its measured ED50.
// result > 1 µmol/kg
